# study system: mutant MGL (Homo sapiens, UniProt Q99685, L169S/L176S)
# assay name: MGL ThermoFluor assay - mutant
# Format: binding
# measurement setup: ThermoFluor concentration-response, read-out: MGL mutant ThermoFluor Kd
Hi! Could you tag entries with Kd below 100 nM as Fulfilled, and those at or above as Not fulfilled? Much appreciated.

{"columns": ["structure smiles string", "category label"],
 "data": [
  ["O=C(C#Cc1ccccc1)N1CC(N2CCN(C(=O)c3nccs3)CC2)C1", "Not fulfilled"],
  ["O=C(c1ccc2c(ccn2-c2ccc(C(F)(F)F)cc2)c1)N1CC(N2CCN(C(=O)c3cscn3)CC2)C1", "Fulfilled"],
  ["CCCCC/C=C\\C/C=C\\C/C=C\\C/C=C\\CCCC(=O)N1CC(N2CCN(C(=O)c3nccs3)CC2)C1", "Not fulfilled"],
  ["O=C(c1ccc(Oc2ccccn2)c(Cl)c1)N1CC(N2CCN(C(=O)c3nccs3)CC2)C1", "Fulfilled"],
  ["O=C(c1ccccc1)N1CCN(C2CN(C(=O)c3ccc(Oc4cccc(C(F)(F)F)c4)nc3)C2)CC1", "Not fulfilled"],
  ["O=C(c1cscn1)N1CCN(C2CN(C(=O)c3ccc(Br)cc3Cl)C2)CC1", "Not fulfilled"],
  ["O=C(c1ccns1)N1CC(N2CCN(C(=O)c3cc4cc(C(F)(F)F)ccc4s3)CC2)C1", "Fulfilled"]
]}

* * *

# study system: purified wild type MGL (wt-MGLL 6H-11-313) (Homo sapiens)
# Sequence (Q99685 1-303): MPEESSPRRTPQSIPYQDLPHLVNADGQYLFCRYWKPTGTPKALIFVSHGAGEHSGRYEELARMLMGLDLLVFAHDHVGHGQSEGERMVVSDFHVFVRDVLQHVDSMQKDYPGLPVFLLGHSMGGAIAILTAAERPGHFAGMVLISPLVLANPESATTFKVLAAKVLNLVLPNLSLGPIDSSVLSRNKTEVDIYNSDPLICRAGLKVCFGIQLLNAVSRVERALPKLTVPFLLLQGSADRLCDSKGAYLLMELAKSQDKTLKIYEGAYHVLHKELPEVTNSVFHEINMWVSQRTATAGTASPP

{"columns": ["structure smiles string", "study system", "IC50"],
 "data": [
  ["O=C(c1ccc2c(ccn2-c2cc(F)ccc2F)c1)N1CC(N2CCN(C(=O)c3nccs3)CC2)C1", "purified wild type MGL (wt-MGLL 6H-11-313) (Homo sapiens)", "< 5 nM"],
  ["Cc1cn(-c2cccc(F)c2)c2ccc(C(=O)N3CC(N4CCN(C(=O)c5nccs5)CC4)C3)cc12", "purified wild type MGL (wt-MGLL 6H-11-313) (Homo sapiens)", "< 5 nM"],
  ["O=C(c1ccccc1)N1CCc2cccc(C(=O)N3CC(N4CCN(C(=O)c5nccs5)CC4)C3)c2C1", "purified wild type MGL (wt-MGLL 6H-11-313) (Homo sapiens)", "> 16700 nM"],
  ["O=C(c1ccc2c(c1)c(Cl)cn2-c1ccc(F)cc1)N1CC(N2CCN(C(=O)c3nccs3)CC2)C1", "purified wild type MGL (wt-MGLL 6H-11-313) (Homo sapiens)", "< 5 nM"]
]}

* * *

# study system: mutant MGL (Homo sapiens, UniProt Q99685, L169S/L176S)
# assay name: MGL ThermoFluor assay - mutant
# Format: binding
# measurement setup: ThermoFluor concentration-response, read-out: MGL mutant ThermoFluor Kd
pKd: −log10 of the molar value.

{"columns": ["structure smiles string", "measurement qualifier", "pKd"],
 "data": [
  ["Cc1nc(-c2ccc(F)cc2)sc1C(=O)N1CC(N2CCN(C(=O)c3ccccc3)CC2)C1", "=", 6.58],
  ["Cc1c(Cc2ccc(C(F)(F)F)cc2)cccc1C(=O)N1CC(N2CCN(C(=O)c3ccc[nH]3)CC2)C1", "=", 6.12],
  ["Cc1c(C(=O)N2CC(N3CCN(C(=O)c4ccc[nH]4)CC3)C2)sc2cc(C(F)(F)F)ccc12", "=", 8.70],
  ["O=C(c1ccc2c(-c3ccccc3)c[nH]c2c1)N1CC(N2CCN(C(=O)c3nccs3)CC2)C1", "=", 8.70],
  ["Cc1cc(Br)ccc1C(=O)N1CC(N2CCN(C(=O)c3ccccc3)CC2)C1", "<", 4.12],
  ["O=C(c1ccc(Oc2ccccn2)cc1)N1CC(N2CCN(C(=O)c3cscn3)CC2)C1", "=", 5.41]
]}

* * *

# study system: mutant MGL (Homo sapiens, UniProt Q99685, L169S/L176S)
# assay name: MGL ThermoFluor assay - mutant
# Format: binding
# measurement setup: ThermoFluor thermal stability binding assay, read-out: MGL mutant ThermoFluor Kd
Would you mind sorting the entries by Kd according to these classes? low class (below 50 nM), middle class (50 nM to below 700 nM), high class (700 nM or more)

{"columns": ["molecule", "category label"],
 "data": [
  ["O=C(c1ccc2c(c1)CCCN2c1cccc(C(F)(F)F)c1)N1CC(N2CCN(C(=O)c3nccs3)CC2)C1", "low class"],
  ["O=C1Cc2cc(C(=O)N3CC(N4CCN(C(=O)c5nccs5)CC4)C3)ccc2N1", "high class"],
  ["O=C(c1nccs1)N1CCN(C2CN(C(=O)c3cnn(-c4ccccc4)c3C(F)(F)F)C2)CC1", "middle class"],
  ["O=C(c1ccc2c(c1)CCN(C(=O)c1ccc[nH]1)C2)N1CC(N2CCN(C(=O)c3nccs3)CC2)C1", "middle class"],
  ["O=C(c1cscn1)N1CC(N2CCN(C(=O)c3cc4cc(Br)cnc4o3)CC2)C1", "high class"],
  ["O=C(/C=C/c1ccccc1Cl)N1CC(N2CCN(C(=O)c3nccs3)CC2)C1", "high class"],
  ["O=C(c1cscn1)N1CCN(C2CN(C(=O)c3cccc4nc(-c5cccc(Cl)c5)[nH]c34)C2)CC1", "middle class"],
  ["O=C(c1ccc(-c2cccc(C(F)(F)F)c2)cc1)N1CC(N2CCN(C(=O)c3nccs3)CC2)C1", "low class"],
  ["O=C(c1ccccc1)N1CCN(C2CN(C(=O)c3ccc(OCc4cccc(OC(F)(F)F)c4)cc3)C2)CC1", "middle class"],
  ["O=C(c1cscn1)N1CCN(C2CN(C(=O)c3csc(-c4cc(Cl)cc(Cl)c4)n3)C2)CC1", "high class"],
  ["O=C(c1cscn1)N1CCN(C2CN(C(=O)c3cccc4[nH]c(-c5ccc(Cl)cc5)nc34)C2)CC1", "middle class"],
  ["Cc1c(C(=O)N2CC(N3CCN(C(=O)c4cscn4)CC3)C2)sc2cc(F)ccc12", "low class"],
  ["O=C(c1ccc(-c2ccccc2)cc1)N1CC(N2CCN(C(=O)c3ncccn3)CC2)C1", "high class"],
  ["CC(=O)N1c2ccc(Br)cc2CCC1C(=O)N1CC(N2CCN(C(=O)c3cscn3)CC2)C1 (stereo not drawn)", "high class"],
  ["O=C(c1ccccc1)N1CCN(C2CN(C(=O)c3ccc(OCc4ccc5ccccc5n4)cc3)C2)CC1", "middle class"],
  ["CC(C)(C)OC(=O)N1CCC(c2ccc(C(=O)N3CC(N4CCN(C(=O)c5cscn5)CC4)C3)cc2)CC1", "middle class"],
  ["O=C(c1ccc(-c2ccccc2)cc1)N1CC(N2CCN(C(=O)c3c[nH]nn3)CC2)C1", "high class"],
  ["O=C(c1ccc2c(c1)Sc1ccccc1O2)N1CC(N2CCN(C(=O)c3cscn3)CC2)C1", "low class"],
  ["CC(=O)N1c2ccc(Br)cc2CCC1C(=O)N1CC(N2CCN(C(=O)c3ccccc3)CC2)C1 (stereo not drawn)", "high class"],
  ["[2H]c1c([2H])c([2H])c(C(=O)N2CCN(C3CN(C(=O)c4ccc(-c5cccc(C(F)(F)F)c5)cc4)C3)CC2)c([2H])c1[2H]", "low class"]
]}

* * *

# study system: mutant MGL (Homo sapiens, UniProt Q99685, L169S/L176S)
# assay name: MGL ThermoFluor assay - mutant
# Format: binding
# measurement setup: ThermoFluor thermal stability binding assay, read-out: MGL mutant ThermoFluor Kd
pKd: −log10 of the molar value.
Listed here are compounds together with their documented pKd.

{"columns": ["compound", "study system", "measurement qualifier", "pKd"],
 "data": [
  ["O=C(c1ccc(-c2ccccc2)cc1)N1CC(N2CCN(C(=O)c3cscn3)C(c3ccccc3)C2)C1 (stereo not shown)", "mutant MGL (Homo sapiens, UniProt Q99685, L169S/L176S)", "<", 4.51],
  ["O=C(c1ccc(OCc2ccc3ccccc3n2)cc1)N1CC(N2CCN(C(=O)c3cscn3)CC2)C1", "mutant MGL (Homo sapiens, UniProt Q99685, L169S/L176S)", "=", 6.27],
  ["N#Cc1ccccc1-n1ccc2cc(C(=O)N3CC(N4CCN(C(=O)c5nccs5)CC4)C3)ccc21", "mutant MGL (Homo sapiens, UniProt Q99685, L169S/L176S)", "=", 7.66],
  ["O=C(c1ccc[nH]1)N1CCN(C2CN(C(=O)c3cc4ccc(C(F)(F)F)nc4o3)C2)CC1", "mutant MGL (Homo sapiens, UniProt Q99685, L169S/L176S)", "=", 4.20],
  ["COc1cc(C(=O)N2CC(N3CCN(C(=O)c4cscn4)CC3)C2)ccc1-c1ccc(Cl)c(C(F)(F)F)c1", "mutant MGL (Homo sapiens, UniProt Q99685, L169S/L176S)", "=", 8.60],
  ["Cc1cc(-c2cccc(C(F)(F)F)c2)ccc1C(=O)N1CC(N2CCN(C(=O)c3cscn3)CC2)C1", "mutant MGL (Homo sapiens, UniProt Q99685, L169S/L176S)", "=", 7.63],
  ["O=C(c1ccccc1)N1CCN(C2CN(C(=O)c3ccc4c(ccn4-c4cccc(C(F)(F)F)c4)c3)C2)CC1", "mutant MGL (Homo sapiens, UniProt Q99685, L169S/L176S)", "=", 8.00],
  ["CC(=O)Nc1cccc(-c2ccc(C(=O)N3CC(N4CCN(C(=O)c5cscn5)CC4)C3)cc2)c1", "mutant MGL (Homo sapiens, UniProt Q99685, L169S/L176S)", "=", 6.23],
  ["O=C(c1nccs1)N1CCN(C2CN(C(=O)c3cccc4oc(-c5ccc(Cl)cc5)nc34)C2)CC1", "mutant MGL (Homo sapiens, UniProt Q99685, L169S/L176S)", "=", 7.82],
  ["O=C(c1nccs1)N1CCN(C2CN(C(=O)c3cccc4nc(-c5ccccc5)oc34)C2)CC1", "mutant MGL (Homo sapiens, UniProt Q99685, L169S/L176S)", "=", 8.22],
  ["O=C(c1cscn1)N1CCN(C2CN(C(=O)c3ccc(-c4cccc(C(F)(F)F)c4)cc3F)C2)CC1", "mutant MGL (Homo sapiens, UniProt Q99685, L169S/L176S)", "=", 8.02],
  ["Cc1c(C(=O)N2CC(N3CCN(C(=O)c4cscn4)CC3)C2)sc2ccc(C(F)(F)F)cc12", "mutant MGL (Homo sapiens, UniProt Q99685, L169S/L176S)", "=", 8.05],
  ["Cc1cc(-c2cccc(C(F)(F)F)c2)ccc1C(=O)N1CC(N2CCN(C(=O)c3nccs3)CC2)C1", "mutant MGL (Homo sapiens, UniProt Q99685, L169S/L176S)", "=", 8.30]
]}
